study.system: Mitogen-activated protein kinase 3 (Homo sapiens, UniProt P27361)
Sequence (P27361 whole entry): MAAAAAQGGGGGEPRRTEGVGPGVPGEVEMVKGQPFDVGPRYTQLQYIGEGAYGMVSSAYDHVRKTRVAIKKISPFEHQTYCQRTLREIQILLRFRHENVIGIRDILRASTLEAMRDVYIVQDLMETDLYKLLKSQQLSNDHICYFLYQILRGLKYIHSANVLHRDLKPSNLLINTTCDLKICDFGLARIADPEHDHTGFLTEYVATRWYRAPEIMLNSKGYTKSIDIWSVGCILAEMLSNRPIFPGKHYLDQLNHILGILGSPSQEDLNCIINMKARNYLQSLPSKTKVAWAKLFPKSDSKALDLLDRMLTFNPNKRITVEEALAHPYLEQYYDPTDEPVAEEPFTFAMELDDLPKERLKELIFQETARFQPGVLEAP
assay.procedure: DRUGMATRIX: Protein Serine/Threonine Kinase, ERK1 enzyme inhibition (substrate: Myelin Basic Protein)
Set-up: species or system Escherichia coli
condition: Not Active = under 50% inhibition at 10 µM
test.readout: IC50

The cases that follow already have their IC50 on record.
SODIUM ORTHOVANAD: Not Active
GENTAMICIN: Not Active
NYSTATIN: Not Active
MANGANESE CHLORIDE ANHYDROUS: Not Active
GADOPENTETATE DIMEGLUMINE: Not Active

For each of the items listed, what is its IC50?
1. GRAMICIDIN
2. AURANOFIN

## Output
1. Not Active
2. Not Active

----------
Assign pKi to each entry below.
study.system: Sodium-dependent noradrenaline transporter (Homo sapiens, UniProt P23975)
Sequence (P23975 whole entry): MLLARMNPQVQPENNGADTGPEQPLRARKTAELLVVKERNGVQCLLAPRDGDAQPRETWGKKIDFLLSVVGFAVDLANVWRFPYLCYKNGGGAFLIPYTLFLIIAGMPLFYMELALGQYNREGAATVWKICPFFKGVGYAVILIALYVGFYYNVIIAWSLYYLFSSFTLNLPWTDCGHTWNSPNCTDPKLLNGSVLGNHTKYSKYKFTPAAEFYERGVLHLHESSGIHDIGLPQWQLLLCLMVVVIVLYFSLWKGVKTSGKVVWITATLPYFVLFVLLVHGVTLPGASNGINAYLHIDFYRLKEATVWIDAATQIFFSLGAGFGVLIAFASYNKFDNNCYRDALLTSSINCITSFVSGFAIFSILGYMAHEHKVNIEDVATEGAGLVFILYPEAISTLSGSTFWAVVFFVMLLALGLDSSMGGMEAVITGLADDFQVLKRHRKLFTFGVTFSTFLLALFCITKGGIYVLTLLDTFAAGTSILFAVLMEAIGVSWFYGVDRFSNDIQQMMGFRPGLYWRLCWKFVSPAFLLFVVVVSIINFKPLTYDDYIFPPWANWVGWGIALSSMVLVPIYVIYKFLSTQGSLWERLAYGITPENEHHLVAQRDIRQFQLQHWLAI
assay.procedure: DRUGMATRIX: Norepinephrine Transporter radioligand binding (ligand: [125I] RTI-55)
Type: cell membranes, MDCK, Membrane
condition: Not Active = under 50% inhibition at 10 µM; read-out: Ki
One number for each entry, as −log10 of the molar value.

Fc1ccc(C(c2ccc(F)cc2)N2CCN(C/C=C/c3ccccc3)CC2)cc1 [FLUNARIZINE]: 5.88

For each of the items listed, what is its pKi?
1. CN(C/C=C/C#CC(C)(C)C)Cc1cccc2ccccc12 [TERBINAFINE]
2. CC(C)c1cccc(C(C)C)c1O [PROPOFOL]
3. CN(C)CC[C@@H](c1ccc(Cl)cc1)c1ccccn1 [DEXCHLORPHENIRAMINE]

## Output
1: 5.39; 2: 5.03; 3: 5.31

----------
Assign pIC50 to each entry below.
study.system: Mitogen-activated protein kinase 14 (Homo sapiens, UniProt Q16539); also: in other assays of this panel Not Active means under 50% inhibition at 10 µM;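 also: inhibition of p38alpha enzyme activity in a biochemical kinase assay, with myelin basic protein serving as substrate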
Sequence (Q16539 whole entry): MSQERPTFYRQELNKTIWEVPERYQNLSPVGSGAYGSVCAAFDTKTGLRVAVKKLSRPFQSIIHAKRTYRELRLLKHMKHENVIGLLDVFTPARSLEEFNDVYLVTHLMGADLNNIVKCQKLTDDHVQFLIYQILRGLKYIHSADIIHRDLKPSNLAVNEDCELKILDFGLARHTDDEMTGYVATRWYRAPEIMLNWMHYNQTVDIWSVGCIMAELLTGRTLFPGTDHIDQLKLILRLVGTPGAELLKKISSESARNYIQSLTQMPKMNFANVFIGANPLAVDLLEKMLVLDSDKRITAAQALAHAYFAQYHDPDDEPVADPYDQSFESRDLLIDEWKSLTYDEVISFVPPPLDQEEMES
Design: species or system Escherichia coli
condition: read-out: IC50
One number for each entry, as −log10 of the molar value.

The cases that follow already have their pIC50 on record.
O=C(c1ccccc1C(F)(F)F)N1CCC(Cc2ccccc2)CC1: 6.15
Cc1c(C)c2c(c(C)c1O)CCC(C)(CN1CCN(c3cc(N4CCCC4)nc(N4CCCC4)n3)CC1)O2 (centres undefined): 5.25
Oc1c(Cl)cc(Cl)c(Cl)c1Cc1c(O)c(Cl)cc(Cl)c1Cl [HEXACHLOROPHENE]: 7.06

Pending compound:
## Input Missing value: pIC50, Mitogen-activated protein kinase 14 (Homo sapiens, UniProt Q16539), entry O=C(Nc1ccc(Br)cc1)c1cc(Br)cc(Br)c1O [TRIBROMSALAN] . Fill in?
## Output 6.15

----------
study.system: UniProt:P21917
Sequence (P21917 whole entry): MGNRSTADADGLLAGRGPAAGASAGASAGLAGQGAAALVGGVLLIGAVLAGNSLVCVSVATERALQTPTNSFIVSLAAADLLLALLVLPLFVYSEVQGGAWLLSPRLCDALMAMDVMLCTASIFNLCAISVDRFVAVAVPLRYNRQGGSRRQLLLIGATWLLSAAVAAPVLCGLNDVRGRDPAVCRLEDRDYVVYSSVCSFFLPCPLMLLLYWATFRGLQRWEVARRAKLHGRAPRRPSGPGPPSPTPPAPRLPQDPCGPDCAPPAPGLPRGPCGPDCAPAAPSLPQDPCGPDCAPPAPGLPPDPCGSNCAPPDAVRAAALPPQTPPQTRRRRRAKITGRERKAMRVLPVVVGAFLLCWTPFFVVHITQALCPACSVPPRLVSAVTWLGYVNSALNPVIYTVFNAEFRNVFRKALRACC
assay.procedure: DRUGMATRIX: Dopamine D4.2 radioligand binding (ligand: [3H] Spiperone)
Type: cell membranes, CHO-K1, Membrane
condition: Not Active = under 50% inhibition at 10 µM; read-out: IC50
test.readout: pIC50
Give bare numbers, as −log10 of the molar value.

## Input Quick check: pIC50 of Clc1ccc(COC(Cn2ccnc2)c2ccc(Cl)cc2Cl)cc1 (stereo unspecified) [ECONAZOLE] ?
## Output 5.03

----------
study.system: Substance-K receptor (Homo sapiens); also: in other assays of this panel Not Active means under 50% inhibition at 10 µM
Sequence (P21452 whole entry): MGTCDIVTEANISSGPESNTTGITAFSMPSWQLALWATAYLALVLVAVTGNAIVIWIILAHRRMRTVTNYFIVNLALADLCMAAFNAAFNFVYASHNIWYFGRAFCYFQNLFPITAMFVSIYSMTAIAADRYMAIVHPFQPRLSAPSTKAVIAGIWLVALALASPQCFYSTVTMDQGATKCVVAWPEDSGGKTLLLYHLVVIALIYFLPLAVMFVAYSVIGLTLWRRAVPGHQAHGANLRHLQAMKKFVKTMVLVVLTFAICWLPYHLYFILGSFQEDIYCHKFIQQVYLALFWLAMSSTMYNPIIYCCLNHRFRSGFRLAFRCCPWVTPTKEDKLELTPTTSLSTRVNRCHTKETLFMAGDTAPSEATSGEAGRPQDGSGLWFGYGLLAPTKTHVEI
Format: cell membranes, CHO, Membrane
condition: cho; read-out: Ki
test.readout: pKi
One number for each entry, as −log10 of the molar value.

## Input Quick check: pKi of GRAMICIDIN ?
## Output 5.82
